Test system: GRK2
Construct: gene ADRBK1
Settings: concentration: 1 μM, replicates: in singlicate; n = 1;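 note: KINOMEscan kinase panel screen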
Consider the following compounds and their measured %Inh readings.
Field: numeric (%). Do not append units.

Input line: Under GRK2: report %Inh of COc1ccc(CNC(=O)NC2CCN(c3ccnc(Nc4ccc(F)cc4)n3)CC2)cc1 [GSK1379788] .
Output line: 0

Input line: Under GRK2: report %Inh of COCCOCCOc1cc2ncc3c4ccc(C#N)cc4[nH]c3c2cc1OC .
Output line: 7

Input line: Under GRK2: report %Inh of FC(F)(F)c1ccc(/C=C/c2cncnc2Nc2ccc3[nH]c(Cc4ccccc4)nc3c2)cc1 [GW709199] .
Output line: 0

* * *

Consider the following compounds and their measured %Inh readings.
System: CSF1R-autoinhibited
Settings: concentration: 1 μM, replicates: in singlicate; n = 1
Field: numeric (%). Do not append units.

>  <Compound>
CNC(=O)c1ccccc1Nc1nc(Nc2ccc(N3CCOCC3)cc2)ncc1Cl.Cl

>  <Measured parameter>
%Inh

>  <Unit descriptor>
%

>  <Obs value>
89

$$$$
>  <Compound>
CCS(=O)(=O)c1ccc(OC)c(Nc2nccc(-c3c(-c4cccc(NC(=O)c5c(F)cccc5F)c4)nn4ncccc34)n2)c1

>  <Measured parameter>
%Inh

>  <Unit descriptor>
%

>  <Obs value>
0

$$$$
>  <Compound>
CN(C)S(=O)(=O)c1cc(-c2ccc3nccc(-c4cccc(S(N)(=O)=O)c4)c3c2)cnc1N

>  <Measured parameter>
%Inh

>  <Unit descriptor>
%

>  <Obs value>
0

$$$$
>  <Compound>
Cl.Cl.NCC(NCc1ccc(-c2ccnc3[nH]ccc23)s1)c1ccccc1 (centres unmarked)

>  <Measured parameter>
%Inh

>  <Unit descriptor>
%

>  <Obs value>
19

$$$$
>  <Compound>
c1ccc(-c2n[nH]cc2Nc2ccnc3ccccc23)nc1

>  <Measured parameter>
%Inh

>  <Unit descriptor>
%

>  <Obs value>
29

$$$$

Input line: Determine from records and report %Inh for Cc1cccc(Nc2nc(N[C@H]3CCNC3)ncc2C(N)=O)c1.Cl
Output line: 0

Input line: Determine from records and report %Inh for CC(C)c1nc(-c2cccc(NS(=O)(=O)c3c(F)cccc3F)c2F)c(-c2ccnc(Nc3ccc(N4CCOCC4)nc3)n2)s1
Output line: 0

Input line: Determine from records and report %Inh for Clc1ccc(-c2nn3ncccc3c2-c2ccnc(Nc3ccc4c(c3)OCCO4)n2)cc1
Output line: 0

Input line: Determine from records and report %Inh for COc1cc(Nc2nccc(N3CCC(NC(=O)c4cc5ccccc5s4)C3)n2)cc(OC)c1OC (centres unmarked)
Output line: 23

Input line: Determine from records and report %Inh for COc1cccc(NC(=O)NC2CCN(c3ccnc(Nc4cc(OC)c(OC)c(OC)c4)n3)C2)c1 (centres unmarked)
Output line: 6

Input line: Determine from records and report %Inh for Cl.c1ccc(-c2ccc3c(Nc4ccc5[nH]ccc5c4)ccnc3c2)nc1
Output line: 36

Input line: Determine from records and report %Inh for CN(c1ccc(NC(=O)Nc2cc(C(F)(F)F)ccc2F)cc1)c1ccnc(Nc2ccc(S(N)(=O)=O)cc2)n1
Output line: 0

Input line: Determine from records and report %Inh for Cc1ccc(S(=O)(=O)Nc2ccc(Nc3nccc(Nc4cccc5[nH]ncc45)n3)cc2)cc1
Output line: 0

Input line: Determine from records and report %Inh for Cc1ccc(C(=O)N2CC[C@@H](O)C2)cc1-n1c(C)cc(OCc2ccc(F)cc2F)c(Br)c1=O
Output line: 0

Input line: Determine from records and report %Inh for COc1cc(Nc2nccc(-c3c(-c4cccc(NC(=O)c5c(F)cccc5F)c4)nn4ccccc34)n2)cc(OC)c1OC
Output line: 0

Input line: Determine from records and report %Inh for CN1CCN(CCCNc2nccc(-c3c(-c4ccc(F)cc4)nn4cc(C(F)(F)F)ccc34)n2)CC1
Output line: 0

Input line: Determine from records and report %Inh for COc1cccc(C(=O)Nc2cccc(Oc3ccc4nc(NC(=O)C5CC5)cn4n3)c2)c1
Output line: 94.2

Input line: Determine from records and report %Inh for COc1cc(Nc2ncc3c(C)nc(-c4cc5ccccc5[nH]4)n3n2)cc(OC)c1OC
Output line: 0

Input line: Determine from records and report %Inh for CSc1cccc2c(-c3ccncn3)c(-c3ccc(F)cc3)nn12
Output line: 21

Input line: Determine from records and report %Inh for O=C(Nc1cccc(-c2nn3ncccc3c2-c2ccnc(Nc3ccccc3)n2)c1)c1c(F)cccc1F
Output line: 17

Input line: Determine from records and report %Inh for CC(=O)N1CCN(c2ccc(Nc3nccc(-c4sc(C(C)C)nc4-c4cccc(NS(=O)(=O)c5cccc(Cl)c5)c4)n3)cn2)CC1
Output line: 0

Input line: Determine from records and report %Inh for O=c1[nH]cc(-c2ccc(N3CCOCC3)cc2)c2sc(-c3cn[nH]c3)cc12
Output line: 0

Input line: Determine from records and report %Inh for COC(=O)Nc1nc2cc(Oc3ccc(NC(=O)Nc4cc(C(F)(F)F)ccc4F)cn3)ccc2[nH]1.Cl.Cl
Output line: 0

* * *

Consider the following compounds and their measured %Inh readings.
Test system: ICK
Settings: concentration: 1 μM, replicates: in singlicate; n = 1
Field: numeric (%). Do not append units.

Before answering, review these 5 worked examples.
>  <Compound>
CCn1c(-c2nonc2N)nc2c(C#CC(C)(C)O)ncc(OCCCCN)c21.O=C(O)C(F)(F)F.O=C(O)C(F)(F)F

>  <Obs value>
11

$$$$
>  <Compound>
O=C(Nc1n[nH]c2cc(-c3ccoc3)ccc12)C1CC1

>  <Obs value>
94.8

$$$$
>  <Compound>
CN1CCN(Cc2cccc(-c3ccc4c(Nc5ccc(Oc6ccccc6)cc5)ccnc4c3)c2)CC1

>  <Obs value>
0

$$$$
>  <Compound>
Cn1cc(-c2ccc3c(c2)CCN3C(=O)Cc2cccc(Cl)c2)c2c(N)ncnc21

>  <Obs value>
0

$$$$
>  <Compound>
COc1cc(Nc2nccc(N3CCC(NC(=O)c4cc5ccccc5s4)C3)n2)cc(OC)c1OC (stereo not drawn)

>  <Obs value>
0

$$$$

Input line: Determine from records and report %Inh for Cn1cc(-c2ccc3c(c2)CCN3C(=O)Cc2cccc(F)c2)c2c(N)ncnc21
Output line: 0

Input line: Determine from records and report %Inh for Cc1cccc(Nc2nc(N[C@H]3CCNC3)ncc2C(N)=O)c1.Cl
Output line: 0

Input line: Determine from records and report %Inh for Oc1cc(Nc2ccnc3cc(I)ccc23)ccc1F
Output line: 0

Input line: Determine from records and report %Inh for c1ccc(-c2n[nH]cc2Nc2ccnc3ccccc23)nc1
Output line: 0

Input line: Determine from records and report %Inh for CN(C)S(=O)(=O)c1cc(-c2ccc3nccc(-c4cccc(S(N)(=O)=O)c4)c3c2)cnc1N
Output line: 44

Input line: Determine from records and report %Inh for CN(C)Cc1ccc(-c2ccc3c(Nc4ccc(Oc5ccccn5)cc4)ccnc3c2)o1
Output line: 0

* * *

Tested on: CDK2
Settings: concentration: 1 μM, replicates: in singlicate; n = 1
Consider the following compounds and their measured %Inh readings.
Field: numeric (%). Do not append units.

Before answering, review these 4 worked examples.
>  <Compound>
Cl.c1ccc(-c2ccc3c(Nc4ccc5[nH]ncc5c4)ccnc3c2)nc1

>  <Measured parameter>
%Inh

>  <Unit descriptor>
%

>  <Obs value>
0

$$$$
>  <Compound>
Cc1occc1-c1ncc(OC[C@@H](N)Cc2c[nH]c3ccccc23)cc1-c1ccc2[nH]nc(C)c2c1.O=C(O)C(F)(F)F

>  <Measured parameter>
%Inh

>  <Unit descriptor>
%

>  <Obs value>
0

$$$$
>  <Compound>
c1ccc(Oc2ccc(Nc3ccnc4cc(-c5ccc(CNCCN6CCOCC6)o5)ccc34)cc2)nc1

>  <Measured parameter>
%Inh

>  <Unit descriptor>
%

>  <Obs value>
0

$$$$
>  <Compound>
O=C(Nc1ccccc1F)NC1CCN(c2ccnc(Nc3ccc(F)cc3)n2)CC1

>  <Measured parameter>
%Inh

>  <Unit descriptor>
%

>  <Obs value>
0

$$$$

Input line: Determine from records and report %Inh for Cc1cccc(Nc2nc(N[C@H]3CCNC3)ncc2C(N)=O)c1.Cl
Output line: 0

Input line: Determine from records and report %Inh for COCCOCCOc1cc2ncc3c4ccc(C#N)cc4[nH]c3c2cc1OC
Output line: 12

Input line: Determine from records and report %Inh for COc1cc(Nc2ncc3c(C)nc(-c4cc5ccccc5[nH]4)n3n2)cc(OC)c1OC
Output line: 0

Input line: Determine from records and report %Inh for CC(C)(C)c1ccc2nccc(Nc3cccc(O)c3)c2c1
Output line: 0

Input line: Determine from records and report %Inh for Cl.Cl.NCC(NC(=O)c1cc(-c2ccccc2)c(-c2ccnc3[nH]ccc23)s1)c1ccccc1 (stereo not drawn)
Output line: 0

Input line: Determine from records and report %Inh for O=C(O)C(F)(F)F.O=C(O)C(F)(F)F.O=c1[nH]ccc2nc(N[C@@H]3CCCNC3)nc(Nc3ccc(S(=O)(=O)N4CCOCC4)cc3)c12
Output line: 88

Input line: Determine from records and report %Inh for COc1cc2c(cc1OCCN1CCNCC1)ncc1c3ccc(C#N)cc3[nH]c21
Output line: 0

Input line: Determine from records and report %Inh for COc1ccc(CNC(=O)NC2CCN(c3ccnc(Nc4ccc(F)cc4)n3)CC2)cc1
Output line: 0
